target: CD3ε homodimer protein (human, UniProt P07766 23-126, limits assumed); test: SPR, immobilized CD3ε homodimer;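 also: biacore T200 surface plasmon resonance at 25 °C, antibody variants flowed as analytes over amine-coupled CD3ε homodimer on a CM4 chip, variant binding amount divided by that of GLS3000 antibody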
Sequence (P07766 23-126 limits assumed): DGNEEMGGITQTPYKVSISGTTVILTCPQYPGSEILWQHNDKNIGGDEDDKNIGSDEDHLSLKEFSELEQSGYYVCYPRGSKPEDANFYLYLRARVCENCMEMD
measured.endpoint: ratio of amounts bound (vs GLS3000)
Give the value as a plain number.

query: Quick one: ratio of amounts bound (vs GLS3000) for GLS3000 V94E (antibody, name in Kabat numbering, V domains shown, one-arm format as m2) VH: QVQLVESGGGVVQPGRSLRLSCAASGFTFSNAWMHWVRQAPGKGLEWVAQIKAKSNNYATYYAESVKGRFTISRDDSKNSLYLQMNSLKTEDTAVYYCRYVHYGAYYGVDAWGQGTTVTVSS VL: DIVMTQSPLSLPVTPGEPASISCRSSQSLVHSNRNTYLHWYQQKPGQAPRLLIYKVSNRFSGVPDRFSGSGSGTDFTLKISRVEAEDVGVYYCGQGTQEPYTFGQGTKLEIK ?
result: 0.5

query: Quick one: ratio of amounts bound (vs GLS3000) for GLS3000 Q90E (antibody, name in Kabat numbering, V domains shown, one-arm format as m2) VH: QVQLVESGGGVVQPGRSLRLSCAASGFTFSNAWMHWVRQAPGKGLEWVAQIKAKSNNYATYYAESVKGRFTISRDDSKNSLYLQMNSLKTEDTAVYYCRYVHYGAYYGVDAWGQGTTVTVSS VL: DIVMTQSPLSLPVTPGEPASISCRSSQSLVHSNRNTYLHWYQQKPGQAPRLLIYKVSNRFSGVPDRFSGSGSGTDFTLKISRVEAEDVGVYYCGEGTQVPYTFGQGTKLEIK ?
result: 0.85

query: Quick one: ratio of amounts bound (vs GLS3000) for GLS3000 Y32P (antibody, name in Kabat numbering, V domains shown, one-arm format as m2) VH: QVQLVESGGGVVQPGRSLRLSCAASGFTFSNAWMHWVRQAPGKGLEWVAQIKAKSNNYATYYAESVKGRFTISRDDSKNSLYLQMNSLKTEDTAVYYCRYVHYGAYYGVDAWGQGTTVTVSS VL: DIVMTQSPLSLPVTPGEPASISCRSSQSLVHSNRNTPLHWYQQKPGQAPRLLIYKVSNRFSGVPDRFSGSGSGTDFTLKISRVEAEDVGVYYCGQGTQVPYTFGQGTKLEIK ?
result: 0.24

query: Quick one: ratio of amounts bound (vs GLS3000) for GLS3000 N53V (antibody, name in Kabat numbering, V domains shown, one-arm format as m2) VH: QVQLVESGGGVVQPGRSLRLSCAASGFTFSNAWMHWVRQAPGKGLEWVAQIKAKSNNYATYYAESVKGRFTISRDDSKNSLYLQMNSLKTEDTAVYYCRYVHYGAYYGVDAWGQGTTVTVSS VL: DIVMTQSPLSLPVTPGEPASISCRSSQSLVHSNRNTYLHWYQQKPGQAPRLLIYKVSVRFSGVPDRFSGSGSGTDFTLKISRVEAEDVGVYYCGQGTQVPYTFGQGTKLEIK ?
result: 0.56

query: Quick one: ratio of amounts bound (vs GLS3000) for GLS3000 H27dT (antibody, name in Kabat numbering, V domains shown, one-arm format as m2) VH: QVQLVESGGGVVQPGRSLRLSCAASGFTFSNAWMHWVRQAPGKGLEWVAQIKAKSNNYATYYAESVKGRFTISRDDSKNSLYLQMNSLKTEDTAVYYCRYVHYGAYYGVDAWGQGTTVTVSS VL: DIVMTQSPLSLPVTPGEPASISCRSSQSLVTSNRNTYLHWYQQKPGQAPRLLIYKVSNRFSGVPDRFSGSGSGTDFTLKISRVEAEDVGVYYCGQGTQVPYTFGQGTKLEIK ?
result: 0.29
